# Test system: UO-31
# assay-method-text: NCI tumour cell line growth inhibition, 48 h
The source made the active and inactive calls. Rule as the data show it: active = GI50 up to about 1.1 µM and inactive = higher.
assay-endpoint: GI50

compound	GI50
CN(C(=O)c1ccc(Cl)cc1)C(=S)N1CCN(c2ccccn2)CC1	> 100 µM (inactive)

Your task in this section: give GI50 for each listed record.
1. O=c1c2ncn(C3CCCO3)c2n(-c2ccccc2)c(=S)n1-c1ccccc1 (stereo unspecified)
2. CC1(C)CN=C(c2ccc3ccccc3c2O)N1
3. O=C(NCCCl)Nc1cccnc1
4. N=C(N)N/N=C/c1c(-c2ccc(Cl)cc2)nc2n1CCS2

RESULT:
> 100 µM (inactive)
> 100 µM (inactive)
22.3 µM (inactive)
12.7 µM (inactive)

QUERY: For the compound Cc1cccc(C(C)(C)C)c1NC(=O)C(C#N)C1=C(Cl)C(=O)c2ccccc2C1=O (stereo unspecified) , what GI50 is on record?
RESULT: 14.7 µM (inactive)

###

# Tested on: CCRF-CEM
# assay-method-text: NCI tumour cell line growth inhibition, 48 h
Calls of active or inactive are those of the source. Rule as the data show it: active = GI50 up to about 1.1 µM and inactive = higher.
Field 'call' accepts label 1 for active, label 0 for inactive

Previously resolved entries follow.
compound	assigned-class
Cn1c(=O)c2/c(n(C)c1=O)=N\C=c1\c(=O)n(C)c(=O)n(C)\c1=N\C=2	label 0
CCC/C(Cl)=N/OC(=O)Nc1cc(C(F)(F)F)ccc1OC	label 0

QUERY: Hello, I am checking results. What call was entered for COC(=O)C(=O)C(C(=O)C(=O)Nc1ccc([N+](=O)[O-])cc1[N+](=O)[O-])c1nc2ccc([N+](=O)[O-])cc2nc1O (stereo not given) ?
RESULT: label 0

QUERY: GET /call?item= Cc1ccc(/C=N/Nc2ncccn2)s1 returns the recorded outcome of this test.
RESULT: label 0

QUERY: Outcome logged for COc1cc2c(c(OC)c1OC)-c1ccc(SC)c(=O)cc1[C@@H](NCc1ccccc1[N+](=O)[O-])CC2 in this assay:
RESULT: label 1

###

# System: HOP-62
# assay-method-text: NCI tumour cell line growth inhibition, 48 h
Activity calls are given as the source filed them. No stated cut-off is given here; in the data, active = GI50 up to about 1.1 µM and inactive = higher.
Field 'call' accepts active, inactive

compound	assigned-class
O=[N+]([O-])c1ccc(Cl)cc1N/N=C/c1cccs1	inactive
CC1=NN(C(=O)CC(=O)Nc2ccc(Cl)cc2)C(=O)C1/N=N\c1ccc(S(=O)(=O)c2ccc(/N=N/C3C(=O)N(C(=O)CC(=O)Nc4ccc(Cl)cc4)N=C3C)cc2)cc1 (stereo unspecified)	inactive
CCOP(=O)(OCC)C(c1ccc(F)cc1)N(C(=O)NC(F)(F)F)c1ccc(F)cc1 (stereo unspecified)	inactive
Cc1cn(C2CC(n3cc(Cn4cc(I)c(=O)[nH]c4=O)nn3)C(CO)O2)c(=O)[nH]c1=O (stereo unspecified)	inactive
COC(=O)C12C3C4C1C1C2C3C41C(=O)N(C(C)C)C(C)C (stereo unspecified)	inactive

QUERY: Called result for Nn1c(CCCl)nc2c(Br)cc(Br)cc2c1=O
RESULT: inactive

QUERY: Test call for this compound, please: C=CCOC(=O)c1c(C)[n+]([O-])c2cc(Cl)c(Cl)cc2[n+]1[O-]
RESULT: inactive

QUERY: Answer briefly: the call reported for Nc1ncnc2c1ncn2[C@@H]1C[C@H]1CO in this assay.
RESULT: inactive

QUERY: How was O=C(N/N=C\c1ccc([N+](=O)[O-])cc1)Nc1ccccc1 classified in this test?
RESULT: inactive

QUERY: Lab log entry: COc1cc(C2c3cc4c(cc3OC(C)(O)C2C)OCO4)cc(OC)c1OC (stereo unspecified) — outcome as called in the assay?
RESULT: active

QUERY: How was O=c1oc2cc(O)ccc2cc1-c1nc2ccccc2s1 classified in this test?
RESULT: inactive

QUERY: What was the test verdict on COc1cccc(C2ON=C(c3ccccc3)N2C23CC4CC(CC(C4)C2)C3)c1 (stereo unspecified) ?
RESULT: inactive

QUERY: Assay outcome for COC(OC)C(C)CC(=O)N(C)C (stereo unspecified) : what was it?
RESULT: inactive

QUERY: Outcome logged for Cn1c(=O)oc2cc(C(=S)N3CCCCC3)ccc21 in this assay:
RESULT: inactive

QUERY: How was C[C@@]12C(=O)OC(=O)[C@]1(C)[C@H]1CC[C@@H]2O1 classified in this test?
RESULT: inactive

QUERY: Recorded call for O=C(NNC(=S)Nc1ccc(Cl)cc1)c1cc(-c2ccccc2)nc2ccccc12 ?
RESULT: inactive

QUERY: Tell me the recorded outcome of this test for CCOC(=O)C1CCCc2sc(N)c(C#N)c21 (stereo unspecified) .
RESULT: inactive

QUERY: Outcome logged for COc1ccc(-c2sc(Br)c3c2C(=O)C2OC(=O)NC32)cc1OC (stereo unspecified) in this assay:
RESULT: inactive

QUERY: Check the results log: what was the call for O=C1NI(C#Cc2ccccc2)c2ccccc21 ?
RESULT: inactive

QUERY: Per the records of this test, what outcome belongs to CN/N=C(\C(=O)Nc1ccc([N+](=O)[O-])cc1[N+](=O)[O-])C1NC(=O)NC1=O (stereo unspecified) ?
RESULT: inactive

QUERY: Write down the call the test reported for this compound. Item: COc1ccc(CNc2nc3c(NC(C)=O)cc(C(F)(F)F)cc3nc2-c2ccccc2)cc1OC
RESULT: inactive

###

# Test system: KM-20L2
# assay-method-text: NCI tumour cell line growth inhibition, 48 h
Activity calls are given as the source filed them. No stated cut-off is given here; in the data, active = GI50 up to about 1.1 µM and inactive = higher.
So I've got a bunch of compounds here, and I need their GI50 values.

// worked examples, GI50 included
compound	assay-endpoint	reported-measurement
Fc1cccc(Cl)c1C1SCc2nc3ccccc3n21 (stereo not given)	GI50	17.2 µM (inactive)
Cc1c(Cl)ccc2c1NC(=O)C2(O)CC(=O)c1ccc2ccccc2c1 (stereo not given)	GI50	69 µM (inactive)
CCOC(=O)C1C=C2O[C@@H]3OC4(CCCCC4)O[C@@H]3C2C2C(=O)CCC(=O)[C@@]12C(=O)OC (stereo not given in full)	GI50	> 100 µM (inactive)
[O-][n+]1c2cc3c(cc2[n+]([O-])c2c(O)cccc21)CN(CCN1CCOCC1)C3	GI50	35.4 µM (inactive)

Note: attention shifts to another entry.
QUERY: Would you mind telling me what GI50 value was observed for CC1=C(Cl)C=CP(=O)(Oc2ccccc2)C1 (stereo not given) ?
RESULT: > 100 µM (inactive)

###

# Tested on: BT-549
# assay-method-text: NCI tumour cell line growth inhibition, 48 h
Calls of active or inactive are those of the source. Cut-off read from the data, not from the text of the source: active = GI50 up to about 1.1 µM and inactive = higher.
Write down one outcome, taken from yes = active, no = inactive

See these solved cases before continuing.
compound	assigned-class
CCOc1cc2c(c(OCC)c1O)CC[C@@H]1[C@@H]2CC[C@]2(C)[C@@H](O)CC[C@@H]12	yes
COC(=O)C1OC(SCCN)C(O)C(O)C1O (stereo not given)	no
COC(=O)/C=C\C(C#N)(C#N)/N=C/c1cc(Br)cs1	no
CC1=C(C(=O)NCC(C)O)CC(C(=O)NCC(C)O)=C(C)N1 (stereo not given)	no

QUERY: Could you kindly confirm the outcome this assay logged for c1ccc2c(c1)N[C@@H]1c3[nH]c4ccccc4c3CC[C@H]21 ?
RESULT: no

###

# System: OVCAR-8
# assay-method-text: NCI tumour cell line growth inhibition, 48 h
Activity calls are given as the source filed them. Rule as the data show it: active = GI50 up to about 1.1 µM and inactive = higher.
Please respond with reported GI50 for every item in the list.

The following compounds have reported results that may help.
compound	GI50
O=C1/C(=C\c2cccc(Oc3ccccc3)c2)S(=O)(=O)C(c2ccccc2)N1c1cc(Cl)ccc1Cl (stereo not given)	5.06 µM (inactive)
N#Cc1sc2c(c1O)c(=O)n(-c1ccccc1)c(=S)n2-c1ccccc1	> 100 µM (inactive)
O=C(NCCCl)Nc1cccnc1	12.4 µM (inactive)
Nc1ncnc2c1ncn2[C@@H]1C[C@H]1CO	> 100 µM (inactive)
CCC1=CC2CN3CCc4c([nH]c5ccccc45)C(C(=O)OC)(C2)C13 (stereo not given)	11 µM (inactive)

Value sought for every listed compound: GI50.
1. O=C1NC2(CCCCC2)C(=O)N1CCN(CCCl)CCCl
2. O=C(CC(=O)N1N=C(c2ccccc2)C(/N=N/c2ccccc2Cl)C1=O)Nc1ccccc1Cl (stereo not given)

RESULT:
1. 129 µM (inactive)
2. 31.7 µM (inactive)

###

Task for the reader: assign each of the following compounds its reported GI50.
# Tested on: CAKI-1
# assay-method-text: NCI tumour cell line growth inhibition, 48 h
Calls of active or inactive are those of the source. Cut-off read from the data, not from the text of the source: active = GI50 up to about 1.1 µM and inactive = higher.

compound	reported-measurement
Cc1ccc(C)c(NC(=O)/C(=N\NC(N)=S)C(C#N)c2ccccc2)c1 (stereo not given)	> 100 µM (inactive)
CN/N=C(\C(=O)Nc1ccc([N+](=O)[O-])cc1[N+](=O)[O-])C1NC(=O)NC1=O (stereo not given)	> 100 µM (inactive)
COc1cc(C(c2cc(OC)c(OC)c(OC)c2)N2C(=O)CCC2C(=O)O)cc(OC)c1OC (stereo not given)	> 100 µM (inactive)
O=C1c2c(Br)sc(Br)c2[C@H]2NC(=S)O[C@@H]12	11.8 µM (inactive)
Cc1cc2nn(C3CCCCO3)nc2cc1C (stereo not given)	> 100 µM (inactive)
CC1=CC(C)(C)NN1C1=NS(=O)(=O)c2ccccc2N1C	> 100 µM (inactive)

Go through the list and state GI50 for each entry.
1. C[C@@H](c1ccccc1)n1c(N)c(-c2ccccn2)c2ccc([N+](=O)[O-])cc2c1=O
2. COc1ccc(/C=C/C2=NN(c3cccc(S(=O)(=O)O)c3)C3(C2)SCC(=O)N3c2nc3ccccc3s2)cc1 (stereo not given)
3. O=C(/C=C/c1ccc(OCCCOc2ccc(/C=C/C(=O)c3ccc(Cl)cc3)cc2)cc1)c1ccc(Cl)cc1
4. CCOC(=O)CO/N=C1/C(=C2/C(=O)Nc3ccccc32)Nc2ccccc21

RESULT:
51.8 µM (inactive)
> 100 µM (inactive)
> 100 µM (inactive)
20.1 µM (inactive)

Numbers sourced from ChEMBL document CHEMBL1201862.
